meta.source: ChEMBL document CHEMBL5042496

Test system: Staphylococcus aureus
Test: Antibacterial activity against methicillin-resistant Staphylococcus aureus assessed as bacterial growth inhibition measured after 24 hrs by two fold serial dilution technique
Format: functional
Entries and their MIC values follow.
Be sure to follow the number with its unit.

# annotated cases, reported MIC shown
CCCCCCCCCCCCN1C(=O)c2cccc3c(N4CCN(C(=O)/C(=N\OC)c5csc(N)n5)CC4)ccc(c23)C1=O; 64 µg/mL
CO/N=C(\C(=O)N1CCN(c2ccc3c4c(cccc24)C(=O)N(n2cnnc2)C3=O)CC1)c1csc(N)n1; 2 µg/mL
CO/N=C(\C(=O)N1CCN(c2ccc3c4c(cccc24)C(=O)N(C2CC2)C3=O)CC1)c1csc(N)n1; 32 µg/mL
CO/N=C(\C(=O)N1CCN(c2ccc3c4c(cccc24)C(=O)N(NC(C)=O)C3=O)CC1)c1csc(N)n1; 4 µg/mL

Turning to the following compound.
Request: # input compound: O=C(O)c1cn(C2CC2)c2cc(N3CCNCC3)c(F)cc2c1=O [CIPROFLOXACIN] ; wanted: its MIC
Response: 4 µg/mL

###

Test system: Staphylococcus aureus
Test: Antibacterial activity against methicillin-resistant Staphylococcus aureus assessed as bacterial growth inhibition measured after 24 hrs by two fold serial dilution technique
Format: functional
measurement-name: MIC (µg/mL)
Field: numeric (µg/mL). Do not append units.

Would you please look over these solved cases?
CO/N=C(\C(=O)N1CCN(c2ccc3c4c(cccc24)C(=O)N(c2nnc(C)s2)C3=O)CC1)c1csc(N)n1; 1
CO/N=C(\C(=O)N1CCN(c2ccc3c4c(cccc24)C(=O)N(CC(=O)O)C3=O)CC1)c1csc(N)n1; 64
CO/N=C(\C(=O)N1CCN(c2ccc3c4c(cccc24)C(=O)N(C)C3=O)CC1)c1csc(N)n1; 4

Request: Requested field: MIC. Item: CO/N=C(\C(=O)N1CCN(c2ccc3c4c(cccc24)C(=O)N(Oc2ccccc2)C3=O)CC1)c1csc(N)n1
Response: 1

###

Assay: Hemolytic activity in human RBC assessed as hemolysis incubated for 1 hr
Type: toxicity, cell-based, Erythrocyte
Details: red blood cells
Friendly reminder: HC50 at 1 h below 300 µg/mL is MET, at or above is NOT MET.

CO/N=C(\C(=O)N1CCN(c2ccc3c4c(cccc24)C(=O)N(CC(=O)O)C3=O)CC1)c1csc(N)n1; NOT MET
CO/N=C(\C(=O)N1CCN(c2ccc3c4c(cccc24)C(=O)N(C2CCCC2)C3=O)CC1)c1csc(N)n1; MET
CO/N=C(\C(=O)N1CCN(c2ccc3c4c(cccc24)C(=O)N(Oc2ccccc2)C3=O)CC1)c1csc(N)n1; MET
CO/N=C(\C(=O)N1CCN(c2ccc3c4c(cccc24)C(=O)N(C(CO)CO)C3=O)CC1)c1csc(N)n1; MET
CO/N=C(\C(=O)N1CCN(c2ccc3c4c(cccc24)C(=O)N(CCN(C)C)C3=O)CC1)c1csc(N)n1; MET

Request: Please let me know if CCCCN1C(=O)c2cccc3c(N4CCN(C(=O)/C(=N\OC)c5csc(N)n5)CC4)ccc(c23)C1=O shows HC50 at 1 h below 300 µg/mL.
Response: NOT MET

Request: API: query returns whether the molecule falls strictly under 300 µg/mL in HC50 at 1 h. Query: CO/N=C(\C(=O)N1CCN(c2ccc3c4c(cccc24)C(=O)N(CCC(=O)O)C3=O)CC1)c1csc(N)n1
Response: MET

Request: Strictly below 300 µg/mL in HC50 at 1 h? CO/N=C(\C(=O)N1CCN(c2ccc3c4c(cccc24)C(=O)N(n2cnnc2)C3=O)CC1)c1csc(N)n1
Response: MET

Request: Does this molecule meet the criterion HC50 at 1 h < 300 µg/mL? CO/N=C(\C(=O)N1CCN(c2ccc3c4c(cccc24)C(=O)N(C2CCCCC2)C3=O)CC1)c1csc(N)n1
Response: MET

###

Test system: Staphylococcus aureus
Assay: Antibacterial activity against Staphylococcus aureus assessed as bacterial growth inhibition measured after 24 hrs by two fold serial dilution technique
Format: functional
measurement-name: MIC (µg/mL)
State just the number; it will be interpreted in µg/mL.

CO/N=C(\C(=O)N1CCN(c2ccc3c4c(cccc24)C(=O)N(Oc2ccccc2)C3=O)CC1)c1csc(N)n1; 64

Request: Recorded MIC for CO/N=C(\C(=O)N1CCN(c2ccc3c4c(cccc24)C(=O)N(C2CCCCC2)C3=O)CC1)c1csc(N)n1 , please?
Response: 64

###

Test system: Staphylococcus aureus
Assay: Antibacterial activity against methicillin-resistant Staphylococcus aureus assessed as bacterial growth inhibition measured after 24 hrs by two fold serial dilution technique
Type: functional
Threshold 20 µg/mL. MIC below it: MET. MIC at it or above: NOT MET.

The examples below pair each entry with its known result.
CCCCCCN1C(=O)c2cccc3c(N4CCN(C(=O)/C(=N\OC)c5csc(N)n5)CC4)ccc(c23)C1=O; NOT MET
CO/N=C(\C(=O)N1CCN(c2ccc3c4c(cccc24)C(=O)N(c2nc4ccccc4[nH]2)C3=O)CC1)c1csc(N)n1; MET
CO/N=C(\C(=O)N1CCN(c2ccc3c4c(cccc24)C(=O)N(C(CO)CO)C3=O)CC1)c1csc(N)n1; MET
CO/N=C(\C(=O)N1CCN(c2ccc3c4c(cccc24)C(=O)N(NCCO)C3=O)CC1)c1csc(N)n1; MET
CO/N=C(\C(=O)N1CCN(c2ccc3c4c(cccc24)C(=O)N(CC#N)C3=O)CC1)c1csc(N)n1; MET
CO/N=C(\C(=O)N1CCN(c2ccc3c4c(cccc24)C(=O)N(OC)C3=O)CC1)c1csc(N)n1; NOT MET
CO/N=C(\C(=O)N1CCN(c2ccc3c4c(cccc24)C(=O)N(c2nc4ccccc4s2)C3=O)CC1)c1csc(N)n1; MET
CO/N=C(\C(=O)N1CCN(c2ccc3c4c(cccc24)C(=O)N(c2ncc(C)s2)C3=O)CC1)c1csc(N)n1; MET
CCn1cc(C(=O)O)c(=O)c2cc(F)c(N3CCNCC3)cc21; MET
CO/N=C(\C(=O)N1CCN(c2ccc3c4c(cccc24)C(=O)N(O)C3=O)CC1)c1csc(N)n1; MET

Request: Field: below-cutoff. Rule: recorded MIC strictly less than 20 µg/mL. Subject: CCCCN1C(=O)c2cccc3c(N4CCN(C(=O)/C(=N\OC)c5csc(N)n5)CC4)ccc(c23)C1=O
Response: MET

Request: Lab note: MIC threshold 20 µg/mL. Does this compound come in strictly under it? CO/N=C(\C(=O)N1CCN(c2ccc3c4c(cccc24)C(=O)N(CCC(=O)O)C3=O)CC1)c1csc(N)n1
Response: MET

###

Tested on: Staphylococcus aureus
Assay: Antibacterial activity against Staphylococcus aureus assessed as bacterial growth inhibition measured after 24 hrs by two fold serial dilution technique
Format: functional
measurement-name: log10 MIC (log10 of the value in µg/mL)
// units: µg/mL (pre-log); metric: MIC; scale: log10

// known answers, use as guide
CO/N=C(\C(=O)N1CCN(c2ccc3c4c(cccc24)C(=O)N(C2CC2)C3=O)CC1)c1csc(N)n1; 1.51
CO/N=C(\C(=O)N1CCN(c2ccc3c4c(cccc24)C(=O)N(C2CCCC2)C3=O)CC1)c1csc(N)n1; 1.81
CO/N=C(\C(=O)N1CCN(c2ccc3c4c(cccc24)C(=O)N(CCO)C3=O)CC1)c1csc(N)n1; 1.81

Request: # log10 MIC lookup, item CO/N=C(\C(=O)N1CCN(c2ccc3c4c(cccc24)C(=O)N(CC(=O)O)C3=O)CC1)c1csc(N)n1
Response: 2.41

Request: Recorded log10 MIC of CN(C)[C@@H]1C(O)=C(C(N)=O)C(=O)[C@@]2(O)C(O)=C3C(=O)c4c(O)cccc4[C@@](C)(O)[C@H]3C[C@@H]12 [TETRACYCLINE] , please.
Response: 0.00

Request: Returns the measured log10 MIC for the input molecule. Input: CO/N=C(\C(=O)N1CCN(c2ccc3c4c(cccc24)C(=O)N(NCCO)C3=O)CC1)c1csc(N)n1
Response: 1.81

###

System: Staphylococcus aureus
Experiment: Antibacterial activity against Staphylococcus aureus assessed as bacterial growth inhibition measured after 24 hrs by two fold serial dilution technique
Type: functional
measurement-name: MIC (µg/mL)
Field: numeric (µg/mL). Do not append units.

Request: Could you share which MIC value was measured for CO/N=C(\C(=O)N1CCN(c2ccc3c4c(cccc24)C(=O)N(n2cnnc2)C3=O)CC1)c1csc(N)n1 ?
Response: 128

Request: Would you kindly share the measured MIC for CO/N=C(\C(=O)N1CCN(c2ccc3c4c(cccc24)C(=O)N(CCC(=O)O)C3=O)CC1)c1csc(N)n1 ?
Response: 64

Request: Given the entry CCCCCCN1C(=O)c2cccc3c(N4CCN(C(=O)/C(=N\OC)c5csc(N)n5)CC4)ccc(c23)C1=O , report its measured MIC.
Response: 16

Request: Look up MIC: CO/N=C(\C(=O)N1CCN(c2ccc3c4c(cccc24)C(=O)N(c2nnc(C)s2)C3=O)CC1)c1csc(N)n1
Response: 64
